Sourced from patent US11795460B2

- Tested on: TTR
- Assay Text: TTR editing in primary human hepatocytes transfected with Spy Cas9 protein (RNP) loaded with dgRNAs (Table 8)
- Format: cell-based
- Condition Context: dgRNA transfected with Spy Cas9 protein (RNP)

- Sequence Data: "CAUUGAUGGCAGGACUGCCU (tested as dual guide RNA, chemistry not given here) [CR003347]"
  Avg % Edit, %: 66.35
- Sequence Data: "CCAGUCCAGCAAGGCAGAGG (tested as dual guide RNA, chemistry not given here) [CR003337]"
  Avg % Edit, %: 49.43
- Sequence Data: "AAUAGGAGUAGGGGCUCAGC (tested as dual guide RNA, chemistry not given here) [CR003384]"
  Avg % Edit, %: 3.56
- Sequence Data: "GGGCGGCAAUGGUGUAGCGG (tested as dual guide RNA, chemistry not given here) [CR003379]"
  Avg % Edit, %: 16.86
- Sequence Data: "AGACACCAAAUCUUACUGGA (tested as dual guide RNA, chemistry not given here) [CR003367]"
  Avg % Edit, %: 31.19
- Sequence Data: "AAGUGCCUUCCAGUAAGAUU (tested as dual guide RNA, chemistry not given here) [CR003368]"
  Avg % Edit, %: 34.83
- Sequence Data: "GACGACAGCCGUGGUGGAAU (tested as dual guide RNA, chemistry not given here) [CR003388]"
  Avg % Edit, %: 5.43
- Sequence Data: "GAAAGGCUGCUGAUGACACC (tested as dual guide RNA, chemistry not given here) [CR003352]"
  Avg % Edit, %: 30.48
- Sequence Data: "GGCCGUGCAUGUGUUCAGAA (tested as dual guide RNA, chemistry not given here) [CR005304]"
  Avg % Edit, %: 49.45
- Sequence Data: "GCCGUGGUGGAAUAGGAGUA (tested as dual guide RNA, chemistry not given here) [CR003387]"
  Avg % Edit, %: 1.79
- Sequence Data: "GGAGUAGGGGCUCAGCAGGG (tested as dual guide RNA, chemistry not given here) [CR003382]"
  Avg % Edit, %: 2.44
- Sequence Data: "CACAUGCACGGCCACAUUGA (tested as dual guide RNA, chemistry not given here) [CR003350]"
  Avg % Edit, %: 24.84
- Sequence Data: "GUCACAGAAACACUCACCGU (tested as dual guide RNA, chemistry not given here) [CR005301]"
  Avg % Edit, %: 31.37
- Sequence Data: "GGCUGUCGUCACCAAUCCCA (tested as dual guide RNA, chemistry not given here) [CR003391]"
  Avg % Edit, %: 34.72
